Assign IC50 to each entry below.
Biological target: SIK1 (Homo sapiens)
Construct: purchased Carna Biosciences 02-131
Sequence (P57059 whole entry): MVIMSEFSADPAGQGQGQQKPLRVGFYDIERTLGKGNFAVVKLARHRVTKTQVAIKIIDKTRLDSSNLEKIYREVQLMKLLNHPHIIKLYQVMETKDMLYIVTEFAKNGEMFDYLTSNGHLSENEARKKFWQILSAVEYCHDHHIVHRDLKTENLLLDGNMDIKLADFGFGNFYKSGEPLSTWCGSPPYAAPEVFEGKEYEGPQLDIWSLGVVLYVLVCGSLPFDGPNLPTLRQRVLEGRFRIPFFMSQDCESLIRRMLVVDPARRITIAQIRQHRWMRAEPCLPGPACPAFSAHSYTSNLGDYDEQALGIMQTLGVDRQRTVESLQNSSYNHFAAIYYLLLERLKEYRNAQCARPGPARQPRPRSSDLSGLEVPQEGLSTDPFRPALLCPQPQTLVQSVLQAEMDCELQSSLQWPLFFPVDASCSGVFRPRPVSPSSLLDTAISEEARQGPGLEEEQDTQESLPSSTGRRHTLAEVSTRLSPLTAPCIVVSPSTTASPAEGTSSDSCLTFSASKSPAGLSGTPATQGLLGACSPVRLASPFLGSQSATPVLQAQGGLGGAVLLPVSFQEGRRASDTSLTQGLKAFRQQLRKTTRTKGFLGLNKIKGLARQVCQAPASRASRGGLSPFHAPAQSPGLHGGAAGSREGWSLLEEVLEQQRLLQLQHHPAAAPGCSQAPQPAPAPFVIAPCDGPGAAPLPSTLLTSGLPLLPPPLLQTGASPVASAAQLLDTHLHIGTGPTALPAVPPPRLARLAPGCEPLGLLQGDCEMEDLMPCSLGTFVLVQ
Assay: biochemical
Details: ADP-Glo SIK kinase assay

Here's what some known entries look like.
- CCNC(=O)c1c(OC)cc(-n2cnc3cc(-c4cnn(C)c4)cnc32)cc1OC(F)F [compound 177]: 10 to 100 nM
- COc1cc(-c2cnc3cc(-c4ccc(C)nn4)ccn23)cc2c1C(=O)N(CC(F)(F)F)CC2 [Cpd 275]: 10 to 100 nM
- COc1cc(-c2cnc3cc(-c4cnn(C)c4)ccn23)cc2c1C(=O)N(CC(F)(F)F)C2 [compound 261]: 0.01 to 10 nM
- COc1cc(-c2cnc3cc(-c4cccnc4C#N)ccn23)cc(OC)c1C(=O)NCC(F)(F)F [compound 268]: > 500 nM
- COc1cc(-n2cnc3cc(-c4cnn(C5CN(C)C5)c4)ccc32)cc(OC)c1C(=O)NCC(F)(F)F [Cpd 98]: 0.01 to 10 nM
- COc1cc(-c2cnc3cc(-c4cnn(C)c4)ccn23)cc2c1C(=O)N(C1CC1)CC2 [compound 262]: 0.01 to 10 nM
- CCN1Cc2cc(-c3cnc4cc(-c5cnn(C)c5)ccn34)cc(OC)c2C1=O [compound 176]: 10 to 100 nM
- COc1cc(-c2cnc3cc(-c4cnn(C5CN(CC#N)C5)c4)ccn23)cc(OC)c1C(=O)NCC(F)(F)F [compound 265]: 0.01 to 10 nM
- COc1cc(-c2cnc3cc(-c4cnn(CC(=O)OCC5CCCO5)c4)ccn23)cc(OC)c1C(=O)NCC(F)(F)F (stereo not shown) [Cpd 297]: 0.01 to 10 nM
- COc1cc(-c2cnc3cc(-c4cnn(C)c4)ccn23)cc(OC)c1C(=O)N[C@H]1C[C@@H]1C(F)F [compound 172]: 0.01 to 10 nM

Give IC50 for each of the items listed below.
1. COc1cc(-c2cnc3cc(-c4cnn(C)c4)ccn23)cc(F)c1C(=O)NC1CC1 [Cpd 276]
2. CCN1Cc2cc(-n3cnc4cc(-c5cnn(C)c5)ccc43)cc(NCCO)c2C1=O [Cpd 202]
3. COc1cc(-c2cnc3cc(-c4cnn(C5CN(C(=O)OC(C)(C)C)C5)c4)ccn23)cc(OC)c1C(=O)NCC(F)(F)F [compound 260]

1: 10 to 100 nM; 2: 100 to 500 nM; 3: 0.01 to 10 nM

Give IC50 for each of the items listed below.
1. COc1cc(-c2cnc3cc(-c4ccc(N5CCOCC5)nn4)ccn23)cc(OC(F)F)c1C(=O)NC1CC1 [compound 286]
2. COc1cc(-c2cnc3cc(-c4cc(C)no4)ccn23)cc(OC(F)F)c1C(=O)NC1CC1 [compound 270]
3. COc1cc(-c2cnc3cc(-c4ccc(C)nn4)ccn23)cc(OC(F)F)c1C(=O)NC1CC1 [Cpd 273]
4. COc1cc(-c2cnc3cc(-c4ccc(C)nn4)ccn23)cc(OC)c1C(=O)NCC(F)(F)F [compound 269]

0.01 to 10 nM
0.01 to 10 nM
10 to 100 nM
10 to 100 nM

----------
System: LPS-induced TNFα secretion in monocyte-derived macrophages (MdM)
Assay: MdM assay: LPS-triggered TNFα (ELISA)
Assay type: cell-based, human
Conditions: Homo sapiens, Macrophage, LPS-triggered TNFα inhibition
Assign EC50 to each entry below.

Here's what some known entries look like.
* COc1cc(-n2cnc3cc(-c4cnn(C5COC5)c4)ccc32)cc(OC)c1C(=O)NCC(F)(F)F | 0.0001 to 0.1 µM
* COc1cc(-c2cnc3cc(-c4cncnc4)ccn23)cc(OC)c1C(=O)NCC(F)(F)F | 1 to 5 µM
* COc1cc(-c2cnc3cc(-c4ccc(C)nn4)ccn23)cc(OC(F)F)c1C(=O)NC1CC1 | 0.0001 to 0.1 µM

Give EC50 for each of the items listed below.
1. COc1cc(-c2cnc3cc(-c4cnn(C)c4)ccn23)cc2c1C(=O)N(CC(F)(F)F)CC2
2. COc1cc(-n2cnc3cc(-c4noc(C)n4)ccc32)cc(OC)c1C(=O)NCC(F)(F)F
3. COc1cc(-c2cnc3cc(-c4ccc(C)nn4)ccn23)cc2c1C(=O)N(CC(F)(F)F)CC2
4. CCn1cc(-c2ccc3c(c2)ncn3-c2cc(OC)c(C(=O)NCC(F)F)c(OC)c2)cn1

1. 0.0001 to 0.1 µM
2. 1 to 5 µM
3. 0.0001 to 0.1 µM
4. 0.1 to 1 µM

Data request, read-out EC50, for COCCn1cc(-c2ccc3c(c2)ncn3-c2cc(OC)c(C(=O)NCC(F)(F)F)c(OC)c2)cn1 0.0001 to 0.1 µM

The reported numbers originate from patent US12065443B2.
